# TARGET_DESC: Myc proto-oncogene protein (Homo sapiens) (UniProt P01106)
# Sequence (P01106 whole entry, looked up): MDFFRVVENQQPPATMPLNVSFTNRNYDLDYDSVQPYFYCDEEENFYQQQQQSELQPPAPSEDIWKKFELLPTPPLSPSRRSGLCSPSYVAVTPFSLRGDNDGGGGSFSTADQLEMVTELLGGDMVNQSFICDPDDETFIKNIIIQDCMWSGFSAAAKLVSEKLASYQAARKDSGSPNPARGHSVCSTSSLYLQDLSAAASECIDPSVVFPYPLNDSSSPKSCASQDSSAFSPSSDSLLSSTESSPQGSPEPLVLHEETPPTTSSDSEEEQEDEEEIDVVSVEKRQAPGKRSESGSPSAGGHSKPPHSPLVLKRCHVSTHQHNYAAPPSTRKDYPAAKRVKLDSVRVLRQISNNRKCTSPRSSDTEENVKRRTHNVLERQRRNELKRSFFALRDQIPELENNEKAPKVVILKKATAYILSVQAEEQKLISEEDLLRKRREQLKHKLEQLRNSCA
# ASSAY_INFO: ATG_Myc_CIS: Attagene CIS-FACTORIAL HepG2 Assay for human Myelocytomatosis (Myc) Proto-Oncogene Transcription Factor (AID 2282990)
# COND: HepG2, Attagene cis-reporter transcription factor activity; actives raise or lower the signal
# Experimental: ATG_CIS is a cell-based, multiplexed-readout assay that uses HepG2, a human liver cell line, with measurements taken at 24 hours after chemical dosing in a 24-well plate.ATG_Myc_CIS is one of 52 assay component(s) measured or calculated from the ATG_CIS assay. […] This assay endpoint, ATG_Myc_CIS, was analyzed with bidirectional fitting relative to DMSO as the negative control and baseline of activity. […]
The source made the active and inactive calls. The calls were made as follows: active = hit-call score of the fitted dose curve at least 0.9, where 1 is the maximum; inactive = score below 0.9.
Answer with one of the outcomes yes (1) for active, no (0) for inactive

C[N+](C)(C)CCCCCC[N+](C)(C)C    no (0)
CCc1cc(Cc2cc(CC)cc(C(C)(C)C)c2O)c(O)c(C(C)(C)C)c1    no (0)
CCC1(c2ccccc2)C(=O)NCNC1=O    no (0)
COC(C)(C)CCO    no (0)
NC1CCCCC1N (configuration not stated)    no (0)
COc1ccc(OC)c(N=Nc2c(O)ccc3ccccc23)c1    no (0)
COc1ccc(CCO)cc1    no (0)
Cc1c(Cl)cccc1[N+](=O)[O-]    no (0)

Exam item: Dear all, I need the recorded test outcome for "CC1(C)CCC[C@]2(C)[C@H]3CCO[C@]3(C)CC[C@@H]12" , thank you.
Marked response: no (0)

Exam item: Next entry: CCCCCCCC(=O)OCC(O)CO (configuration not stated)
Marked response: no (0)

Exam item: Also "CCN(CC)C(=O)N(CC)CC" ?
Marked response: no (0)

Exam item: Input "O=C(CS)OCCOC(=O)CS"
Marked response: no (0)

Exam item: Try the compound "Oc1c(Cl)cc(Cl)c(Cl)c1Cc1c(O)c(Cl)cc(Cl)c1Cl"
Marked response: yes (1)

* * *

# ASSAY_INFO: ATG_TCF_b_cat_CIS: Attagene CIS-FACTORIAL HepG2 Assay for human T-Cell-Factor with beta-catenin (TCF/b-cat) (AID 2282965)
# COND: HepG2 TCF/beta-catenin cis-reporter transcription, actives raise or lower the signal
Calls of active or inactive are those of the source. Rule for the calls: active = hit-call score of the fitted dose curve at least 0.9, where 1 is the maximum; inactive = score below 0.9.
One label from this list, please: yes for active, no for inactive

Record excerpt, results attached:
COc1cc(CCC(C)=O)ccc1O    no
OC[C@H]1O[C@@H](Oc2ccc(O)cc2)[C@H](O)[C@@H](O)[C@@H]1O    no

We next turn to a different compound, shown below.
Exam item: For "FC(F)(F)COCC(F)(F)F" , what call appears in the results of this test?
Marked response: no

* * *

# Test system: Thyroperoxidase (TPO), gene 54314
# ASSAY_INFO: CCTE_Simmons_AUR_rTPO: CCTE's Amplex UltraRed Assay for Thyroperoxidase (TPO) Inhibition, Simmons Lab (AID 2283662);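 also: potency for loss of signal meaning inhibition of peroxidase activity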
The source made the active and inactive calls. Rule for the calls: active = hit-call score of the fitted dose curve at least 0.9, where 1 is the maximum; inconclusive = response in the unintended direction; inactive = score below 0.9.
Listed here are compounds together with their documented AC50.

CSCCC=O    43.8 µM (active)

Exam item: What measured AC50 goes with "[O-]n1ccccc1=S.[O-]n1ccccc1=S.[Zn+2]" ?
Marked response: 3.72 µM (active)

Exam item: What would you report for "Cc1cc(S(=O)(=O)O)ccc1N=Nc1c(O)ccc2ccccc12" ?
Marked response: 35 µM (active)
